- Method description: In Vitro Microsome Stability Assay (human)
- Assay type: in vitro ADME
- Applied conditions: human, 30 min, NADPH
- Experimental: Potassium phosphate (423 μL of a 0.1 M solution) was added to 8-strip deep well tubes followed by human, mouse, rat, or monkey microsomes (25 μL of a 20 mg/mL solution). The tubes were then placed on ice and the test article (2 μL of a 0.25 mM solution in DMSO) was added. […] Liver microsome stability is assessed by the % remaining of compound at 30 min which is calculated using the following equation: [(AUCanalyteT=30/AUCIS)/(AUCanalyteT=0/AUCIS)]*100 […]
Classes (Liver Microsome Stability-% Left after 30 min w/ NADPH (%) Human): low (below 0.5%), medium (0.5% to below 20%), high (20% or more)

C=C1CN(S(=O)(=O)c2ccc(C)cc2)CCCN(CC2CCCCC2)CCCN(S(=O)(=O)C2CCCCC2)C1 [A5]
low

Req: Which category fits this record: C=C1CN(S(=O)(=O)c2ccc(N(C)C)cc2)CCCN(CC2CCCCC2)CCCN(S(=O)(=O)N2CCc3cc(C#N)ccc3C2)C1 [A70]
Resp: medium

Req: Which category fits this record: C=C1CN(S(=O)(=O)c2ccc(N(C)C)cc2)CCCN(CC2CCCCC2)CCCN(S(=O)(=O)N2CCC(c3ncccn3)CC2)C1 [A81]
Resp: low

src = patent US11578055B2
